measured on: His-tagged canine IL-31 (interleukin 31) recombinant protein (canine)
experiment notes: BLI (Gator), biotinylated antibody on streptavidin probe, canine IL-31 as analyte
Recorded Kd, one value per entry.
measured endpoint: Kd (nM)

INSERT INTO measurements (binder, measured_endpoint, assay_value) VALUES
  ('6465-H3K1-canIgGB (antibody, V domains shown) VH: EVQLVESGGDLVKPGGSLRLSCVASGYSFTNYYLYWVRQAPGKGLEWVAELNPRNGGTNLNAKFKTRFTISRDNAKNMAYLQMNSLRAEDTAVYYCTRGGTTVVVRDVMDFWGQGTLVTVSS VL: EIVLTQTPLSLAVTPGELATISCRASESVDSYGNSFMHWYLQKPGQTPRLLIYRASNLESGVSDRFSGSGSRTDFTLKISRVEAEDVGVYYCQQSNEDPYTFGQGTKLEIKR', 'Kd', 5.75),
  ('7475-H2K2-canIgGB (antibody, V domains shown) VH: EVQLVESGGDLVKPGGSLRLSCVASGFTFSSYAMSWIRQAPGKGLQWVAYISNGGDYIFYADTVKGRFTISRDNAKNTLYLQMNSLRAEDTAVYYCTRRGHYNTSSYWYFDVWGQGTLVTVSS VL: EIVMTQSPASLSLSQEEKVTITCKASENVGTYVSWYQQKPGQAPKLLIYGASNRYTGVPSRFSGSGSATDFTLTISSVEPEDVAVYYCGQSYSYPPTFGAGTKVELKR', 'Kd', 3.61),
  ('B2-H3K2-canIgGB (antibody, V domains shown) VH: EVQLVESGGDLVKPGGSLRLSCVASGFTFSDAWMDWVRQAPGKGLQWVAEIRSRAESHATYYAESVKGRFTISRDDAKNTVYLQMNSLRAEDTAVYYCTPASTMITTGWFAYWGQGTLVTVSS VL: DIVMTQTPLSLSVSPGETASISCRASQNISVYLHWYRQKPGQSPQVLIKYVSQSISGVPDRFSGSGSGSDFTLRISRVEADDTGVYYCQNGHSFPYTFGQGTKLEIKR', 'Kd', 1.76),
  ('B2-H2K1-canIgGB (antibody, V domains shown) VH: EVQLVESGGDLVKPGGSLRLSCVASGFTFSDAWMDWVRQAPGKGLEWVAEIRSRAESHATYYAESVKGRFTISRDDAKNMVYLQMNSLRAEDTAVYYCTPASTMITTGWFAYWGQGTLVTVSS VL: EIVMTQTPLSLAVTPGELATISCRASQNISVYLHWYLQKPGQTPRVLIKYVSQSISGVSDRFSGSGSGSDFTLKISRVEAEDVGVYYCQNGHSFPYTFGQGTKLEIKR', 'Kd', 10),
  ('B2-H1K3-canIgGB (antibody, V domains shown) VH: EVQLVESGGDLVKPGGSLRLSCVASGFTFSDAWMDWVRQAPGKGLQWLAEIRSRAESHATYYAESVKGRFTISRDDAKNTVYLQMNSLRAEDTAVYYCTPASTMITTGWFAYWGQGTLVTVSS VL: EIVMTQTPLSLSVSPGELATISCRASQNISVYLHWYQQKPGQAPKVLIKYVSQSISGVPSRFSGSGSGSDFTLTISSVEAEDVGVYYCQNGHSFPYTFGQGTKLEIKR', 'Kd', 16.7);

The measured values listed here are drawn from patent EP4745156A1.
